# IC50 listing for each entry below
molecular target: HCV polymerase 1B (Δ21 NS5B, BK) (Hepatitis C virus genotype 1b, UniProt P26663); construct: 20 to 50 nM Δ21 NS5B; test: biochemical
Sequence (P26663 2420-2989, stated change not applied): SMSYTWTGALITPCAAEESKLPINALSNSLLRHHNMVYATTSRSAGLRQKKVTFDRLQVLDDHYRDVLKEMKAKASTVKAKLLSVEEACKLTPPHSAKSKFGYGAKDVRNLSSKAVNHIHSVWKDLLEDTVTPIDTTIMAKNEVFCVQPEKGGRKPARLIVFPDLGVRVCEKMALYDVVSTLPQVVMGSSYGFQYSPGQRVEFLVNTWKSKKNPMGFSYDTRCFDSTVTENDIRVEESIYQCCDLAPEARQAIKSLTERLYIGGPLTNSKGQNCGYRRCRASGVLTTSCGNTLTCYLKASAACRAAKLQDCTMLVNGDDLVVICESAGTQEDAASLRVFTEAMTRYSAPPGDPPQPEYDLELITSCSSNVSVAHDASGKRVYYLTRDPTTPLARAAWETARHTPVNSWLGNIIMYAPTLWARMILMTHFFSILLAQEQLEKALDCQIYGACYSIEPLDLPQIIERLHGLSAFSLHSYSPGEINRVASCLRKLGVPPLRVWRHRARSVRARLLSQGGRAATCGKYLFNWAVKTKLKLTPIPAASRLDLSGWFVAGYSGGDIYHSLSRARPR
ENDPOINT LABEL: IC50

MOLECULE | SYSTEM TESTED | MEAS VALUE
CCC(=O)N(c1ccc(NC(=O)c2cc(N3CCC(=O)NC3=O)cc(C(C)(C)C)c2OC)cc1)S(C)(=O)=O [IA-L3-1.70] | HCV polymerase 1B (Δ21 NS5B, BK) (Hepatitis C virus genotype 1b, UniProt P26663) | > 1000 nM
COc1c(C(=O)Nc2cc(CN(C)S(C)(=O)=O)cs2)cc(N2CCC(=O)NC2=O)cc1C(C)(C)C [IA-L3-1.97] | HCV polymerase 1B (Δ21 NS5B, BK) (Hepatitis C virus genotype 1b, UniProt P26663) | > 1000 nM
COc1c(C#Cc2ccc(NS(C)(=O)=O)c3ccccc23)cc(N2CCC(=O)NC2=O)cc1C(C)(C)C [IA-L2-2.1] | HCV polymerase 1B (Δ21 NS5B, BK) (Hepatitis C virus genotype 1b, UniProt P26663) | 10 to 100 nM
CC(C)(C)c1cc(N2CCC(=O)NC2=O)cc(CN2CCC[C@@H](O)C2)c1O [IA-L5-1-1.6, trifluoroacetic acid] | HCV polymerase 1B (Δ21 NS5B, BK) (Hepatitis C virus genotype 1b, UniProt P26663) | > 1000 nM
COc1c(-c2ccsc2)cc(-n2ccc(=O)[nH]c2=O)cc1-c1ccc2c(c1)CC=C2CNS(C)(=O)=O [IB-L0-2.62] | HCV polymerase 1B (Δ21 NS5B, BK) (Hepatitis C virus genotype 1b, UniProt P26663) | 10 to 100 nM
CC(C)(C)c1cc(N2CCC(=O)NC2=O)cc(C(=O)Nc2nccs2)c1O [IA-L3-1.104] | HCV polymerase 1B (Δ21 NS5B, BK) (Hepatitis C virus genotype 1b, UniProt P26663) | 100 to 1000 nM
COc1ccc(-c2cc(-n3ccc(=O)[nH]c3=O)cc(C(C)(C)C)c2OC)cc1/C=N/NS(C)(=O)=O [IB-L0-1.6] | HCV polymerase 1B (Δ21 NS5B, BK) (Hepatitis C virus genotype 1b, UniProt P26663) | 100 to 1000 nM
COc1c(-c2ccc3c(c2)CCC3C(C)(C)NS(C)(=O)=O)cc(-n2ccc(=O)[nH]c2=O)cc1C(C)(C)C (centres unmarked) [IB-L0-2.29] | HCV polymerase 1B (Δ21 NS5B, BK) (Hepatitis C virus genotype 1b, UniProt P26663) | 10 to 100 nM
